system: Acinetobacter baumannii MDR ACB from Libya (V4); assay: MIC assay, CAMHB with alginate oligomer, no visible growth; type: cell-based; conditions: Acinetobacter baumannii, Table 1; V4 ACB (Libya); OligoCF-5/20 0G; read-out: MIC
measured.parameter: MIC

Example results:
compound | MIC
C[C@H]1[C@H](NC(=O)/C(=N\OC(C)(C)C(=O)O)c2csc(N)n2)C(=O)N1S(=O)(=O)O [Aztreonam] | 1020 µg/mL
O=C(O)c1cn(C2CC2)c2cc(N3CCNCC3)c(F)cc2c1=O [Ciprofloxacin] | 64 µg/mL
CC[C@H]1OC(=O)[C@H](C)[C@@H](O[C@H]2C[C@@](C)(OC)[C@@H](O)[C@H](C)O2)[C@H](C)[C@@H](O[C@@H]2O[C@H](C)C[C@H](N(C)C)[C@H]2O)[C@](C)(O)C[C@@H](C)CN(C)[C@H](C)[C@@H](O)[C@]1(C)O [Azithromycin] | 8 µg/mL
C[C@@H](O)[C@H]1C(=O)N2C(C(=O)O)=C(S[C@@H]3CN[C@H](C(=O)N(C)C)C3)[C@H](C)[C@H]12 [Meropenem] | < 4 µg/mL

Kindly review the next compound as well.
Lookup: Bench note: what MIC did CC(C)(O/N=C(\C(=O)N[C@@H]1C(=O)N2C(C(=O)[O-])=C(C[n+]3ccccc3)CS[C@H]12)c1csc(N)n1)C(=O)O [Ceftazidime] show?
Found: 512 µg/mL
